- Study system: AM2 receptor (1321N1 cells transfected with CALCRL+RAMP3) (Homo sapiens, UniProt O60896+Q16602)
- Construct: host or cells: 1321N1 cells
- Sequence (Q16602 23-461): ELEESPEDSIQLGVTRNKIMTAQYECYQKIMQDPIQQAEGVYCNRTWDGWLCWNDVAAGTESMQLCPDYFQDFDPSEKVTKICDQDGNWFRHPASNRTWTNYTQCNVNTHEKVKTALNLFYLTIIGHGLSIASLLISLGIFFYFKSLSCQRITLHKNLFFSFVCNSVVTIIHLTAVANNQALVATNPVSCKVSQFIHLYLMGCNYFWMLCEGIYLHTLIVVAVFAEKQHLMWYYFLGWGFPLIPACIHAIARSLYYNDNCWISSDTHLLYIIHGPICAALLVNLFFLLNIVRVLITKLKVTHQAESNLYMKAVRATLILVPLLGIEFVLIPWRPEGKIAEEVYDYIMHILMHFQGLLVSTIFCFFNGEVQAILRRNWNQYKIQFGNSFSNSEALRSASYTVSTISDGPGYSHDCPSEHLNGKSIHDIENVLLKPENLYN
- Sequence (O60896 24-148): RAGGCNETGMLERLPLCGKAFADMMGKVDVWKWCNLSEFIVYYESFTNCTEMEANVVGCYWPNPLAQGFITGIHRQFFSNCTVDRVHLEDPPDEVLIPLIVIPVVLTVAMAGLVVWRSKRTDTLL
- Experiment description: AM2 receptor inhibition, LANCE cAMP agonist-antagonist competition assay
- Assay type: cell-based
- Measurement context: inhibition of AM induced cAMP activation, read-out: AM2 D2 protocol: pIC50 (converted)
Classify: 1 when IC50 is strictly less than 3 nM; 0 when IC50 is not.

Please review the following examples before continuing.
> print(dat)
                                   compound  class.name
1  CNCc1ccccc1CN(CC(=O)Nc1ccc2c(c1)CC1(C2)C(=O)Nc2ncccc21)C(=O)C12CCN(CC1)CC2 (stereo not drawn)           0
2  CCC1(C(=O)N(CC(=O)Nc2ccc3c(c2)C[C@@]2(C3)C(=O)Nc3ncccc32)Cc2ccccc2CNC)CCN(C(=O)C23CC(C2)C3)CC1           1
3  CNCc1ccccc1CN(CC(=O)Nc1ccc2c(c1)C[C@@]1(C2)C(=O)Nc2ncccc21)C(=O)C1(C)CCN(CCOC)CC1           1
4  CNCc1ccccc1CN(CC(=O)Nc1ccc2c(c1)C[C@@]1(C2)C(=O)Nc2ncccc21)C(=O)C1(C)CCN(C(=O)CC2CC2)CC1           0
5  CC(=O)N1CCC(C)(C(=O)N(CC(=O)Nc2cc3c(cc2C)CC2(C3)C(=O)Nc3ncccc32)Cc2ccccc2CN)CC1 (stereo not drawn)           0
6  CCC1(C(=O)N(CC(=O)Nc2ccc3c(c2)C[C@@]2(C3)C(=O)Nc3ncccc32)Cc2ccccc2CNC)CCN(C)C(=O)C1 (stereo partly drawn)           0
7  CCC1(C(=O)N(CC(=O)Nc2ccc3c(c2)C[C@@]2(C3)C(=O)Nc3ncccc32)Cc2ccccc2CNC)CCN(C(=O)N2CCOCC2)CC1           1
8  CNCc1ccccc1CN(C(=O)C1(C)CCN(C(C)=O)CC1)[C@@H](C)C(=O)Nc1ccc2c(c1)C[C@@]1(C2)C(=O)Nc2ncccc21           0

Exercise: Find out if reported IC50 for CNCc1ccccc1CN(CC(=O)Nc1ccc2c(c1)CC1(C2)C(=O)Nc2ncccc21)C(=O)C1(C)CCN(C(=O)c2cccnc2)CC1 (stereo not drawn) is less than 3 nM
Key: 1

Exercise: Find out if reported IC50 for CCC1(C(=O)N(CC(=O)Nc2ccc3c(c2)C[C@@]2(C3)C(=O)Nc3ncccc32)Cc2ccccc2CNC)CCN(C(=O)N2CCCCC2)CC1 is less than 3 nM
Key: 0

Exercise: Find out if reported IC50 for CCC1(C(=O)N(CC(=O)Nc2ccc3c(c2)C[C@@]2(C3)C(=O)Nc3ncccc32)Cc2ccccc2CNC)CCN(C(=O)C(C)C)CC1 is less than 3 nM
Key: 0

Exercise: Find out if reported IC50 for CNCc1ccccc1CN(CC(=O)Nc1ccc2c(c1)C[C@@]1(C2)C(=O)Nc2ncccc21)C(=O)C1(C)CCN(CC(=O)O)CC1 is less than 3 nM
Key: 0

Exercise: Find out if reported IC50 for CNCc1ccccc1CN(CC(=O)Nc1ccc2c(c1)C[C@@]1(C2)C(=O)Nc2ncccc21)C(=O)C1(C)CCN(C(=O)c2cccnn2)CC1 is less than 3 nM
Key: 0

Exercise: Find out if reported IC50 for CNCc1ccccc1CN(CC(=O)Nc1ccc2c(c1)C[C@@]1(C2)C(=O)Nc2ncccc21)C(=O)C1(C)CCCN(C(C)=O)CC1 (stereo partly drawn) is less than 3 nM
Key: 1

Exercise: Find out if reported IC50 for CNCc1ccccc1CN(CC(=O)Nc1ccc2c(c1)C[C@@]1(C2)C(=O)Nc2ncccc21)C(=O)C1(C)CCN(C(=O)CN2CCN(C(C)=O)CC2)CC1 is less than 3 nM
Key: 1
